Subject Of Test: HPK1 (SLP76 phosphorylation at Ser376 in Jurkat and EL-4 cells) (Homo sapiens, UniProt Q92918)
Sequence (Q92918 whole entry, looked up): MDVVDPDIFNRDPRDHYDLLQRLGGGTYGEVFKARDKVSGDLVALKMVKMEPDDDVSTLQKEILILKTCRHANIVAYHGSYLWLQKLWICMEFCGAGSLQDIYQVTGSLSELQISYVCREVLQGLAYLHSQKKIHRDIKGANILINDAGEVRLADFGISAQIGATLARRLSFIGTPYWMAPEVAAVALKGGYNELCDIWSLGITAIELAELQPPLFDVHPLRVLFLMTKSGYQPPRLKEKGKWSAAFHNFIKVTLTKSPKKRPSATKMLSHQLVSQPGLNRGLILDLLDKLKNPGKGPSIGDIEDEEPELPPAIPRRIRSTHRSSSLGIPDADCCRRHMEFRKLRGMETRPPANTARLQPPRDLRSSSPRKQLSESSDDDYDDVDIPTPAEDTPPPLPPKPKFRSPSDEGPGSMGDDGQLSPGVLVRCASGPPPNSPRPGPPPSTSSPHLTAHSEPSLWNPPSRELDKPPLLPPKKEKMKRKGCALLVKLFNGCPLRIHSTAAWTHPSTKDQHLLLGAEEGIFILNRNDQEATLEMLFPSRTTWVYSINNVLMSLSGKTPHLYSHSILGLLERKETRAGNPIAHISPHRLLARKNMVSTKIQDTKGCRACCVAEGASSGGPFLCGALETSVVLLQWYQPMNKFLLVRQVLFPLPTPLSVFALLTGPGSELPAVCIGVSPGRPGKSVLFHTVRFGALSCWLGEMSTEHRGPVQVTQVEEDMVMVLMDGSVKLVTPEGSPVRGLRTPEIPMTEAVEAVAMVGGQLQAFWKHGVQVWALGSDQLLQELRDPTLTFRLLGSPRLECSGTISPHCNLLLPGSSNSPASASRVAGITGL
Format: cell-based
Run Parameters: read-out: HPK1 pSLP76 IC50; αCD3/αCD28 Dynabeads stimulated cells, pSLP76 (Ser376) detection
pIC50: −log10 of the molar value.
Quantity Measured: pIC50

Some molecules with recorded pIC50:
>>> result("Cc1c(N2CCc3cnc(Nc4ccc(N5CCC(O)CC5)nc4)nc3C2)cnc2c1NCCO2 [Example 102]")
"< 6.00"
>>> result("Cc1c(N2CCc3cnc(Nc4ccc5c(c4)CN(C)C5=O)nc3C2)cnc2c1NCCO2 [Example 96]")
"< 6.00"

// pIC50 lookup, key: Cc1c(N2CCc3cnc(Nc4ccc(OC5CCOCC5)cc4)nc3C2)cnc2c1NCCO2 [Example 94]
6.00 to 6.30

Suppose we examine the molecule Cc1c(N2CCc3cnc(Nc4ccc(N5CCC(OC(F)(F)F)CC5)cc4)nc3C2)cnc2c1NCCO2 [Example 103] ; what pIC50 value has been reported?
< 6.00

Returns the measured pIC50 for the input molecule. Input: Cc1c(N2CCc3cnc(Nc4ccc(N5CCN(C)CC5)cc4)nc3C2)cnc2c1NCCO2 [Example 55]
6.00 to 6.30

Any idea what its pIC50 is? The molecule is Cc1c(N2CCc3cnc(Nc4ccc5c(c4)C(C)(C)OC5)nc3C2)cnc2c1NCCO2 [Example 93]
> 6.30

Please give the measured pIC50 for this molecule: Cc1c(N2CCc3cnc(Nc4cccc(CN5CCOCC5)c4)nc3C2)cnc2c1NCCO2 [Example 60]
6.00 to 6.30

----------
Subject Of Test: HPK1 (SLP76 phosphorylation at Ser376 in Jurkat and EL-4 cells) (Homo sapiens)
Format: cell-based
Run Parameters: αCD3/αCD28 Dynabeads stimulated cells, pSLP76 (Ser376) detection; read-out: HPK1 pSLP76 IC50
Listed next: entries and their corresponding IC50.

Solved entries (count: 5):
>>> result("Cc1c(N2CCc3cnc(Nc4ccc(CS(=O)(=O)CCN(C)C)cc4)nc3C2)cnc2c1NCCO2")
"< 500 nM"
>>> result("Cc1c(N2Cc3nc(Nc4ccc(CS(C)(=O)=O)cc4)ncc3C(F)(F)C2)cnc2c1NCCO2")
"< 500 nM"
>>> result("Cc1c(N2CCc3cnc(Nc4ccc([C@H](C)S(C)(=O)=O)cc4)nc3C2)cnc2c1NCCO2 (single isomer, unassigned)")
"< 500 nM"
>>> result("Cc1c(N2CCc3cnc(Nc4cc5n(n4)CC(=O)N(C)CC5)cc3C2)cnc2c1NCCO2")
"< 500 nM"
>>> result("Cc1c(N2CCc3cnc(Nc4ccc(NC(=O)CN5CCOCC5)cc4)nc3C2)cnc2c1NCCO2")
"< 500 nM"

Suppose we examine the molecule Cc1c(N2CCc3cnc(Nc4cccc(CS(C)(=N)=O)c4)nc3C2)cnc2c1NCCO2 (centres unmarked) ; what IC50 value has been reported?
< 500 nM

Using the record for Cc1cc(Nc2cc3c(cn2)CCN(c2cnc4c(c2Cl)NCCO4)C3)ccc1NC(=O)CN1CCOCC1 , report its IC50.
500 to 1000 nM

What value of IC50 has been reported for the following molecule? CNCc1ccc(Nc2ncc3c(n2)CN(c2cnc4c(c2C)NCCO4)CC3)cc1
500 to 1000 nM
